- System: E13 (patient-derived glioblastoma stem cells of classical subtype)
- ASSAY_TEXT: surviving fraction (nuclei count normalised to DMSO); higher = more cells surviving (less toxic)
- TEST_CONDITIONS: 4.1 nM; exposure time: 72 h
Where a name gives a salt, the structure may show the parent alone.
Tag: TRUE if measured surviving fraction is not below 0.9, FALSE if it is.

COc1cc([C@@H]2c3cc4c(cc3[C@H](O)[C@H]3COC(=O)[C@H]23)OCO4)cc(OC)c1OC ... FALSE
OC(c1cc(C(F)(F)F)nc2c(C(F)(F)F)cccc12)C1CCCCN1 (stereo not given) [Mefloquine hydrochloride] ... TRUE

As a next step, examine the compound that follows.
Kindly determine if surviving fraction recorded for O=C(Nc1ccc([N+](=O)[O-])cc1Cl)c1cc(Cl)ccc1O [Niclosamide] is above or exactly 0.9.
FALSE

###

- Test system: FT3469 (normal neural stem cell line)
- ASSAY_TEXT: surviving fraction (nuclei count normalised to DMSO); higher = more cells surviving (less toxic)
- TEST_CONDITIONS: 3000 nM; exposure time: 72 h
Structures can show the parent of a compound that is named as a salt.
VALUE_TYPE: surviving fraction
Lab note: jot down the number only; don't add units.

Please review the following examples before continuing.
CC(C)CC(=O)N[C@H](C(=O)N[C@H](C(=O)N[C@@H](CC(C)C)[C@@H](O)CC(=O)N[C@@H](C)C(=O)N[C@@H](CC(C)C)[C@@H](O)CC(=O)O)C(C)C)C(C)C ... 1.07
CSc1ccc2c(c1)N(CCC1CCCCN1C)c1ccccc1S2 (configuration not stated) [Thioridazine hydrochloride] ... 0.997
C/C=C1\NC(=O)[C@H]2CSSCC/C=C/[C@H](CC(=O)N[C@H](C(C)C)C(=O)N2)OC(=O)[C@H](C(C)C)NC1=O ... 0.0672
O=C(Nc1ccc([N+](=O)[O-])cc1Cl)c1cc(Cl)ccc1O [Niclosamide] ... 0.28

Recorded surviving fraction of CCn1cc(-c2ccnc3[nH]c(-c4cccc(CN(C)C)c4)cc23)c(-c2ccc(NC(=O)N(C)C)cc2)n1 , please.
0.591

Recorded surviving fraction of CC[C@@H]1C(=O)N(C)c2cnc(Nc3ccc(C(=O)N[C@H]4CC[C@H](N5CCN(CC6CC6)CC5)CC4)cc3OC)nc2N1C(C)C , please.
0.544

Recorded surviving fraction of COC(=O)C1=C(C)NC(C)=C(C(=O)OCC(C)C)C1c1ccccc1[N+](=O)[O-] (configuration not stated) , please.
0.896

###

- System: E21 (patient-derived glioblastoma stem cells of mesenchymal subtype)
- ASSAY_TEXT: surviving fraction (nuclei count normalised to DMSO); higher = more cells surviving (less toxic)
- TEST_CONDITIONS: 333.3 nM; exposure time: 72 h
Structures can show the parent of a compound that is named as a salt.
Listed here are compounds together with their documented surviving fraction.

Please review the following examples before continuing.
CCC(C)(C)c1ccc(CC(C)CN2C[C@@H](C)O[C@@H](C)C2)cc1 (stereo not given in full) [Amorolfine hydrochloride] ... 1.03
COc1cc([C@@H]2c3cc4c(cc3[C@H](O)[C@H]3COC(=O)[C@H]23)OCO4)cc(OC)c1OC ... 0.0628
CCC(C)n1ncn(-c2ccc(N3CCN(c4ccc(OCC5COC(Cn6cncn6)(c6ccc(Cl)cc6Cl)O5)cc4)CC3)cc2)c1=O (stereo not given) ... 1.05

# evaluate next
Recorded surviving fraction of Cc1cc(Nc2cc(N3CCN(C)CC3)nc(Sc3ccc(NC(=O)C4CC4)cc3)n2)n[nH]1 , please.
0.288

###

- Test system: E31 (patient-derived glioblastoma stem cells of proneural subtype);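 further: cell Painting imaging in 384-well plates, CellProfiler features reduced to at least 20 principal components, Euclidean distance versus same-plate DMSO vehicle wells (0.1% v/v), median over six images per well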
- ASSAY_TEXT: phenotypic distance (Euclidean, principal components) from DMSO controls (arbitrary units); higher = stronger morphological change
- TEST_CONDITIONS: 1000 nM; exposure time: 72 h
Where a name gives a salt, the structure may show the parent alone.
Tag: Condition met if measured phenotypic distance is not below 2, Condition not met if it is.

C[C@H]1Oc2cc(cnc2N)-c2c(nn(C)c2C#N)CN(C)C(=O)c2ccc(F)cc21 ... Condition not met
COc1cc2nc(N3CCN(C(=O)c4ccco4)CC3)nc(N)c2cc1OC [Prazosin hydrochloride] ... Condition not met
COc1cc2c(c(OC)c1OC)-c1ccc(OC)c(=O)cc1[C@@H](NC(C)=O)CC2 ... Condition met
Clc1ccc(COC(Cn2ccnc2)c2ccc(Cl)cc2Cl)cc1 (centres undefined) [Econazole nitrate] ... Condition not met
C[C@@H]1CN([C@H]2CC[C@](C#N)(c3ccc(F)cc3)CC2)CC[C@]1(C(=O)O)c1ccccc1 [Levocabastine hydrochloride] ... Condition not met
Cc1ccc(C(=O)N(CCCN)[C@@H](c2oc3cc(Cl)ccc3c(=O)c2Cc2ccccc2)C(C)C)cc1 ... Condition met

Kindly determine if phenotypic distance recorded for CN1C(=O)OC(C)(C)C1=O is above or exactly 2.
Condition not met

Kindly determine if phenotypic distance recorded for C=C[C@H]1CN2CC[C@H]1C[C@@H]2[C@@H](O)c1ccnc2ccc(OC)cc12 [Quinidine hydrochloride monohydrate] is above or exactly 2.
Condition not met

###

- Tested on: E28 (patient-derived glioblastoma stem cells of classical subtype)
- ASSAY_TEXT: surviving fraction (nuclei count normalised to DMSO); higher = more cells surviving (less toxic)
- TEST_CONDITIONS: 12.3 nM; exposure time: 72 h
Where a name gives a salt, the structure may show the parent alone.
VALUE_TYPE: surviving fraction

Please review the following examples before continuing.
C#C[C@]1(O)CC[C@H]2[C@@H]3CCc4cc(OC5CCCC5)ccc4[C@H]3CC[C@@]21C ... 1.04
CNCCCC12CCC(c3ccccc31)c1ccccc12 [Maprotiline hydrochloride] ... 0.929
C[C@H]1O[C@@H](O[C@H]2[C@@H](O)C[C@H](O[C@H]3[C@@H](O)C[C@H](O[C@H]4CC[C@@]5(C)[C@H](CC[C@@H]6[C@@H]5C[C@@H](O)[C@]5(C)[C@@H](C7=CC(=O)OC7)CC[C@]65O)C4)O[C@@H]3C)O[C@@H]2C)C[C@H](O)[C@@H]1O ... 0.85
CC(C)N1CCN(c2ccc(OCC3COC(Cn4cncn4)(c4ccc(Cl)cc4Cl)O3)cc2)CC1 (configuration not stated) ... 1.04
Clc1ccc(COC(Cn2ccnc2)c2ccc(Cl)cc2Cl)cc1 (configuration not stated) [Econazole nitrate] ... 1.03

Recorded surviving fraction of NCCNc1ccc(NCCN)c2c1C(=O)c1ccncc1C2=O [Pixantrone dimaleate] , please.
0.604

Recorded surviving fraction of NC(=O)c1cccc2cn(-c3ccc([C@@H]4CCCNC4)cc3)nc12 , please.
0.975

###

- System: E21
- ASSAY_TEXT: surviving fraction (nuclei count normalised to DMSO); higher = more cells surviving (less toxic)
- TEST_CONDITIONS: 37 nM; exposure time: 72 h
Where a name gives a salt, the structure may show the parent alone.
Tag: y if measured surviving fraction is not below 0.9, n if it is.

Solved entries:
CC(C)CC(=O)N[C@H](C(=O)N[C@H](C(=O)N[C@@H](CC(C)C)[C@@H](O)CC(=O)N[C@@H](C)C(=O)N[C@@H](CC(C)C)[C@@H](O)CC(=O)O)C(C)C)C(C)C ... y
C[C@@H](Oc1cc(-c2cnn(C3CCNCC3)c2)cnc1N)c1c(Cl)ccc(F)c1Cl ... y
Nc1ncn(C2OC(CO)C(O)C2O)c(=O)n1 (centres undefined) ... y
CN(C)CCN(Cc1ccc(Cl)cc1)c1ccccn1 [Chloropyramine hydrochloride] ... n
CC1(C)S[C@@H]2[C@H](NC(=O)Cc3ccccc3)C(=O)N2[C@H]1C(=O)O [Benzylpenicillin sodium] ... y

Kindly determine if surviving fraction recorded for COC(=O)Nc1nc2cc(C(=O)c3ccccc3)ccc2[nH]1 is above or exactly 0.9.
n

Kindly determine if surviving fraction recorded for CC(C)(C)C1CCN(C(=O)n2ncc(C(O)(c3ccccc3)c3ccccc3)n2)CC1 is above or exactly 0.9.
y

Kindly determine if surviving fraction recorded for C[C@H]1O[C@@H](O[C@H]2[C@@H](O)C[C@H](O[C@H]3[C@@H](O)C[C@H](O[C@H]4CC[C@@]5(C)[C@H](CC[C@@H]6[C@@H]5C[C@@H](O)[C@]5(C)[C@@H](C7=CC(=O)OC7)CC[C@]65O)C4)O[C@@H]3C)O[C@@H]2C)C[C@H](O)[C@@H]1O is above or exactly 0.9.
n

Kindly determine if surviving fraction recorded for Oc1c(Cl)cc(Cl)c(Cl)c1Cc1c(O)c(Cl)cc(Cl)c1Cl is above or exactly 0.9.
y

Kindly determine if surviving fraction recorded for COc1cc([C@@H]2c3cc4c(cc3[C@@H](O[C@@H]3O[C@@H]5CO[C@@H](c6cccs6)O[C@H]5[C@H](O)[C@H]3O)[C@H]3COC(=O)[C@H]23)OCO4)cc(OC)c1O [Teniposide] is above or exactly 0.9.
n

###

- System: FT3469
- ASSAY_TEXT: surviving fraction (nuclei count normalised to DMSO); higher = more cells surviving (less toxic)
- TEST_CONDITIONS: 1000 nM; exposure time: 72 h
Counter-ions that a name gives are not always drawn.
VALUE_TYPE: surviving fraction
Lab note: jot down the number only; don't add units.

NC1CCN(c2nc3c(cc2F)c(=O)c(C(=O)O)cn3-c2ccc(F)cc2F)C1 (stereo not drawn) [Tosufloxacin hydrochloride] ... 0.96

Recorded surviving fraction of Cc1ccc(S(=O)(=O)/C=C/C#N)cc1 [Bay 11-7082] , please.
0.714

Recorded surviving fraction of NC(=O)c1ccccc1 [Benzamide] , please.
0.921

Recorded surviving fraction of CC1CNc2c(cccc2S(=O)(=O)N[C@@H](CCCNC(=N)N)C(=O)N2CC[C@@H](C)C[C@@H]2C(=O)O)C1 (stereo partly drawn) [Argatroban] , please.
0.99

Recorded surviving fraction of CCC(=O)OCC(=O)[C@@]1(OC(=O)CC)[C@H](C)C[C@H]2[C@H]3[C@H]([C@@H](O)C[C@@]21C)[C@@]1(C)C=CC(=O)C=C1C[C@H]3Cl [Alclometasone dipropionate] , please.
1.19

Recorded surviving fraction of CCn1c(-c2nonc2N)nc2cnc(Oc3cccc(NC(=O)c4ccc(OCCN5CCOCC5)cc4)c3)cc21 , please.
0.911

Recorded surviving fraction of CC(NCCC(c1ccccc1)c1ccccc1)c1ccccc1 (stereo not drawn) [Fendiline hydrochloride] , please.
1.28

Recorded surviving fraction of CCOC(=O)OC(C)OC1=C(C(=O)Nc2ccccn2)N(C)S(=O)(=O)c2ccccc21 (stereo not drawn) [Ampiroxicam] , please.
1.08
